- Tested on: ALK3 (Alk3p, cytochrome P450 CYP52)
- assay_summary: In vitro enzymatic assay: conversion of radiolabeled fatty acids by microsomes of S. cerevisiae WAT11 expressing ALK3 (TLC, GC-MS)
- applied_conditions: fresh microsomes, standardized total protein, NADPH, duplicate, TLC
quantity_kind: Products of conversion by Alk3p seen in TLC chromatograms

CCCCC/C=C\C/C=C\CCCCCCCC(=O)O ... two products
CCCCCCCC/C=C\CCCCCCCC(=O)O ... two products
CCCCCCCCCCCC(=O)O ... two products

* * *

- Test system: ALK3 (Alk3p, cytochrome P450 CYP52)
- assay_summary: In vitro enzymatic assay: conversion of radiolabeled fatty acids by microsomes of S. cerevisiae WAT11 expressing ALK3 (TLC, GC-MS)
- applied_conditions: gene ALK3; substrate 100 μM, yeast microsomes, NADPH, TLC; ND: not detectable
Below: a set of entries, each annotated with reported Degree of conversion (%).
Number in %, nothing else.

CCCCCCCCCCCCCC(=O)O ... 68
CCCCC/C=C\C/C=C\CCCCCCCC(=O)O ... 35
CCCCCCCC/C=C\CCCCCCCC(=O)O ... 27
CCCCCCCCCCCCCCCCCC(=O)O ... 3

Now look at this entry.
Prompt: State the recorded Degree of conversion (%) for this entry: `CCCCCCCCCCCC(=O)O`
Response: 65
